Values compiled from patent US7700646B2.

I'd appreciate it if you could supply Oxacillin MIC values for the items below.
# Tested on: S. aureus BB568
# TEST: MIC of oxacillin in absence or presence of fixed concentration of compound
# Format: cell-based, Staphylococcus aureus
# EXPERIMENTAL_CONDITIONS: BB 568; in presence of 12.5 mg/L compound
Numbers only, in mg/L.

>>> df
                                   compound  assay_readout  quantitative_readout
0  O=C(O[C@@H]1Cc2c(O)cc(O)cc2O[C@@H]1c1cc(O)cc(O)c1)c1cc(O)c(O)c(O)c1  Oxacillin MIC                     1

Recorded Oxacillin MIC for O=C(O[C@@H]1Cc2c(O)cc(O)cc2O[C@@H]1c1cccc(O)c1)c1cc(O)c(O)c(O)c1 [Compound 47, (−)-3-hydroxy B ring modified (−)-ECg] , please?
2
